FYI, the data here is from ChEMBL document CHEMBL5649168.

Molecular target: Calcium/calmodulin-dependent protein kinase kinase 2 (Homo sapiens)
Sequence (Q96RR4 whole entry): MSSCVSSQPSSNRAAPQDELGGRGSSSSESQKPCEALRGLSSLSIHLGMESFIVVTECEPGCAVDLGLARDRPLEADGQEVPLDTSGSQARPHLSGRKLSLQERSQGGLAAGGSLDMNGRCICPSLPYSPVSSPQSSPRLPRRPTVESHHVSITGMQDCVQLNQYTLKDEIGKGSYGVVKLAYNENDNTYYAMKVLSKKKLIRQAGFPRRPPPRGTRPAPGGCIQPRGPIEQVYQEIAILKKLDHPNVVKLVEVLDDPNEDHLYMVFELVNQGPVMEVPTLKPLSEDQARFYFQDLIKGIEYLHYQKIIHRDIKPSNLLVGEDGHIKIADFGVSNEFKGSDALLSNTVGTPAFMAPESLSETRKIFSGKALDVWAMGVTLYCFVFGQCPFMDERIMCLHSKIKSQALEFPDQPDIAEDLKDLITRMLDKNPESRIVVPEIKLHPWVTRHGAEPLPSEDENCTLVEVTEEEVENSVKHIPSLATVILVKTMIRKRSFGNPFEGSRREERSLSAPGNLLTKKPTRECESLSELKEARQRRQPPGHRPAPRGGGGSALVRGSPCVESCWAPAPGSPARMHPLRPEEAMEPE
Test: Inhibition of CAMKK2 (unknown origin)
pIC50: −log10 of the molar value.

compound	experimental.system	pIC50
CNC(=O)Nc1ccc2c(c1)CC[C@@]21OC(=O)N(CC(=O)N(Cc2ccc(F)cc2)[C@@H](C)C(F)(F)F)C1=O [A-485]	Calcium/calmodulin-dependent protein kinase kinase 2 (Homo sapiens)	< 5.00

----------
Test: Half life in CB17 SCID mouse xenografted with LuCaP-77 CR cell at 200 mg/kg, ip administered for 7 days
Format: ADME, organism-based
Conditions: in vivo, time 7 day
measurement.type: half-life (h)

compound.structure	value.unit	readout.number
CNC(=O)Nc1ccc2c(c1)CC[C@@]21OC(=O)N(CC(=O)N(Cc2ccc(F)cc2)[C@@H](C)C(F)(F)F)C1=O	h	3

----------
Molecular target: Protein kinase C theta type (Homo sapiens, UniProt Q04759)
Sequence (Q04759 whole entry): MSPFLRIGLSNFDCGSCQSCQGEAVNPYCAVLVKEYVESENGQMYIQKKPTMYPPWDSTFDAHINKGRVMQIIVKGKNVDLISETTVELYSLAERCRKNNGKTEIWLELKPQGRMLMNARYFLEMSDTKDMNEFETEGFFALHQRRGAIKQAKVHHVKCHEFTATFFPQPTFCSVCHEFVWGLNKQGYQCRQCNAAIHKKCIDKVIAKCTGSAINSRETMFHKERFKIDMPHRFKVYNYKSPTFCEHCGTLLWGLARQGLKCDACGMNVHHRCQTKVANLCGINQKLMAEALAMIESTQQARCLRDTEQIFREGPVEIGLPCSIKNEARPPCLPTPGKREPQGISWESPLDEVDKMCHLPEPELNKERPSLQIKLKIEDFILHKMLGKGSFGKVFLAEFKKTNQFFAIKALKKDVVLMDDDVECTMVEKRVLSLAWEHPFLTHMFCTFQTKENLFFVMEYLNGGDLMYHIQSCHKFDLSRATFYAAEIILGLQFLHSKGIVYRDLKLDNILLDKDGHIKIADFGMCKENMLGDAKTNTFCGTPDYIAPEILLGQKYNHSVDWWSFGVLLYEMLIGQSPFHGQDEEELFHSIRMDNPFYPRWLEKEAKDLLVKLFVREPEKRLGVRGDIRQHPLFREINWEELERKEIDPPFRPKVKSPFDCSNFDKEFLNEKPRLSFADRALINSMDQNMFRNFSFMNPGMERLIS
measurement.type: IC50

compound	experimental.system	result
CNC(=O)Nc1ccc2c(c1)CC[C@@]21OC(=O)N(CC(=O)N(Cc2ccc(F)cc2)[C@@H](C)C(F)(F)F)C1=O [A-485]	Protein kinase C theta type (Homo sapiens, UniProt Q04759)	> 10 µM

----------
Test: Tmax in CB17 SCID mouse xenografted with LuCaP-77 CR cell at 50 mg/kg, ip administered for 7 days
Assay type: ADME, organism-based
Conditions: in vivo, time 7 day

compound.structure	Tmax (h)
CNC(=O)Nc1ccc2c(c1)CC[C@@]21OC(=O)N(CC(=O)N(Cc2ccc(F)cc2)[C@@H](C)C(F)(F)F)C1=O	3

----------
System: DU-145
Assay: Antiproliferative activity against human DU-145 cells assessed as inhibition of cell viability incubated for 3 to 5 days by Celltiter-Glo luminescent assay
Type: functional, cell-based
measurement.type: EC50

compound.structure	experimental.system	result
CNC(=O)Nc1ccc2c(c1)CC[C@@]21OC(=O)N(CC(=O)N(Cc2ccc(F)cc2)[C@@H](C)C(F)(F)F)C1=O	DU-145	> 10 µM

----------
Test system: SK-MEL-1
Experiment: Antiproliferative activity against human SK-MEL-1 cells assessed as inhibition of cell viability incubated for 3 to 5 days by Celltiter-Glo luminescent assay
Type: functional, cell-based

compound.structure	EC50 / nM
CNC(=O)Nc1ccc2c(c1)CC[C@@]21OC(=O)N(CC(=O)N(Cc2ccc(F)cc2)[C@@H](C)C(F)(F)F)C1=O	570

----------
System: Kasumi 1
Test: cells
Settings: Homo sapiens
pEC50: −log10 of the molar value.
measurement.type: pEC50

compound	readout.number
CNC(=O)Nc1ccc2c(c1)CC[C@@]21OC(=O)N(CC(=O)N(Cc2ccc(F)cc2)[C@@H](C)C(F)(F)F)C1=O [A-485]	6.54

----------
Molecular target: UniProt Q05397
Sequence (Q05397 whole entry): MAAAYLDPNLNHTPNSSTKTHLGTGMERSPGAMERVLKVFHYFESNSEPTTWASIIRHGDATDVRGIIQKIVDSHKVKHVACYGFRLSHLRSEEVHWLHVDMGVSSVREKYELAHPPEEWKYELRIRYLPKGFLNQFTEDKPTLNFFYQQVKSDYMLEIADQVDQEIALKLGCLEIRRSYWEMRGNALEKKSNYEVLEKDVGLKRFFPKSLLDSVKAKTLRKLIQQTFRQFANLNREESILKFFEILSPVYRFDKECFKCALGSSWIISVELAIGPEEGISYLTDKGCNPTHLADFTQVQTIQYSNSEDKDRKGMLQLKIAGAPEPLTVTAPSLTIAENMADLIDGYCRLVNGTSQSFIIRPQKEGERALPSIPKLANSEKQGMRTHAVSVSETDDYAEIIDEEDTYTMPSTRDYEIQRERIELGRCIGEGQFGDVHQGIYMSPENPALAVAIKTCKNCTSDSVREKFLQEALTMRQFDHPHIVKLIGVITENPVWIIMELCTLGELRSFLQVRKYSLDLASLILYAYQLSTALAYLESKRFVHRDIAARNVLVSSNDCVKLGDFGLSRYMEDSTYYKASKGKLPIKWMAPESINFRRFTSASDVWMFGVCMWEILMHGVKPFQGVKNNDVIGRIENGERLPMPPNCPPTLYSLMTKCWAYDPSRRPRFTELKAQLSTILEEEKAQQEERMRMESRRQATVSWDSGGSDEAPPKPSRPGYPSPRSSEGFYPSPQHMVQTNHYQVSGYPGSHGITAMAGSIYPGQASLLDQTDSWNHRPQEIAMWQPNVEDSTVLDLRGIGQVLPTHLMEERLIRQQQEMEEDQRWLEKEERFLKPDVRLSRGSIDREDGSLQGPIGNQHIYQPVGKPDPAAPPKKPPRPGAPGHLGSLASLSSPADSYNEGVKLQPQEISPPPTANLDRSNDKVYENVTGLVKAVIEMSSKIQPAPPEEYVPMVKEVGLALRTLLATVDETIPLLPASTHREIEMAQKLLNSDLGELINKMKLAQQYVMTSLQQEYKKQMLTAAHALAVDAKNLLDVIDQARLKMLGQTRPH
measurement.type: IC50

molecule	experimental.system	result
CNC(=O)Nc1ccc2c(c1)CC[C@@]21OC(=O)N(CC(=O)N(Cc2ccc(F)cc2)[C@@H](C)C(F)(F)F)C1=O [A-485]	UniProt Q05397	> 10 µM

----------
System: Rec1
Experiment: Antiproliferative activity against human REC1 cells assessed as inhibition of cell viability incubated for 3 to 5 days by Celltiter-Glo luminescent assay
Format: functional, cell-based

molecule	EC50
CNC(=O)Nc1ccc2c(c1)CC[C@@]21OC(=O)N(CC(=O)N(Cc2ccc(F)cc2)[C@@H](C)C(F)(F)F)C1=O [A-485]	> 10 µM
